- System: CD69
- EXPERIMENTAL_DETAILS: Induction of CD69 in human whole blood
- Format: cell-based
- EXPERIMENTAL_CONDITIONS: 17 hrs, CD69 surface staining, 100% set to 1 uM of resiquimod, average where assay was performed multiple times, read-out: hWB CD69 EC50
I'd appreciate it if you marked entries yes when EC50 is lower than 70 nM and no when it is not.

- SAMPLE_SMILES: "COc1cc(CN2CC(OC)C2)ccc1Cn1ncc2nc(N)nc(N[C@H](CO)CC3CC3)c21"
  CATEGORY: "yes"

Is EC50 of `COc1cc(CO)ccc1Cn1ncc2nc(N)nc(NCc3cc(C)on3)c21` strictly below 70 nM?
no

Determine if `COc1cc(CN2CCN(CCO)CC2)ccc1Cn1ncc2nc(N)nc(NCc3noc(C)n3)c21` shows EC50 strictly lower than 70 nM.
yes

Consider the molecule `COc1cc(CNC2CCC2)ccc1Cn1ncc2nc(N)nc(NCc3noc(C)n3)c21` . Is its EC50 strictly less than 70 nM?
yes

Lab note: confirm whether the reported EC50 for this molecule is below 70 nM, equality not counting. molecule: `COc1cc(CN2CCN(S(C)(=O)=O)CC2)ccc1Cn1ncc2nc(N)nc(NCc3noc(C)n3)c21`
no

For this molecule, is EC50 lower than 70 nM? `COc1cc(CN2CCN(CCO)CC2)cnc1Cn1ncc2nc(N)nc(NCc3noc(C)n3)c21`
no

Consider the molecule `COc1cc(CN2CCN(C)CC2)ccc1Cn1ncc2nc(N)nc(NCc3noc(C)n3)c21` . Is its EC50 strictly less than 70 nM?
yes

EC50 strictly < 70 nM for this molecule? `COc1cc(CN2CCN(C)CC2)ccc1Cn1nc(C)c2nc(N)nc(NCc3cc(C)on3)c21`
yes

---

Quick list: EC50 per entry.
- TARGET_OR_SYSTEM: human TLR7 (Homo sapiens, UniProt Q9NYK1)
- Sequence (Q9NYK1 27-1049): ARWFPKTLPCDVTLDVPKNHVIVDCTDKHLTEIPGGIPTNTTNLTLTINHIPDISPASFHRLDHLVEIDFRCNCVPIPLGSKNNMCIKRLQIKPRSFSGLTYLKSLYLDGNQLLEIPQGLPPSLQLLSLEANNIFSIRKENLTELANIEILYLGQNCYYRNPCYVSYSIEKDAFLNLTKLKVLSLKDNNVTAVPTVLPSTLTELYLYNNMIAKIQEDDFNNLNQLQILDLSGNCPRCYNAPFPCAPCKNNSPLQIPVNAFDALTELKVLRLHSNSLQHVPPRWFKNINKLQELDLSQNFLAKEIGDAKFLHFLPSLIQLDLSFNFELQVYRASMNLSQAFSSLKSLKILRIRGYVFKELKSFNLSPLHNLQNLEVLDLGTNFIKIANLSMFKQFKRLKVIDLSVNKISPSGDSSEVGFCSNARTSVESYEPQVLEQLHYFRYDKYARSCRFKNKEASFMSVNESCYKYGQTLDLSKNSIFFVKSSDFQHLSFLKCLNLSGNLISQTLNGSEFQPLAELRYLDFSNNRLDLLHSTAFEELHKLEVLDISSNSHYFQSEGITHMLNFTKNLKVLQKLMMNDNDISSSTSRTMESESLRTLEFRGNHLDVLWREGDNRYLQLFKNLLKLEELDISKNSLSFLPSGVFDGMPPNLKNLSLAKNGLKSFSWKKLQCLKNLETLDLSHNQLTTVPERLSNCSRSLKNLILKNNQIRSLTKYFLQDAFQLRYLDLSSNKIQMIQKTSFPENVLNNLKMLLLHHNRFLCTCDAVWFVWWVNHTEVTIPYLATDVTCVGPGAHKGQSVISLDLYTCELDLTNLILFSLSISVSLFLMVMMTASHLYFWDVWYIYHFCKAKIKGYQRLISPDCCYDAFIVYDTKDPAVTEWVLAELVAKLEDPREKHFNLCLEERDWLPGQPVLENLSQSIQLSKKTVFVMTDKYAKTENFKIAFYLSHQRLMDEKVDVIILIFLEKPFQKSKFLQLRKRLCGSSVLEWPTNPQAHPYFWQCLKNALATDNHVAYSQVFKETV
- EXPERIMENTAL_DETAILS: Human TLR7 agonist (reporter) activity assay, HEK-Blue TLR7 cells, SEAP reporter
- EXPERIMENTAL_CONDITIONS: 18 h treatment, average where assay was performed multiple times, read-out: hTLR7 Agonism EC50
Expressed in nM, but write only the number.

Past entries and their recorded results:
- SAMPLE_SMILES: "COc1cc(CN2CCC(S(C)(=O)=O)CC2)ccc1Cn1ncc2nc(N)nc(NCc3noc(C)n3)c21"
  EC50 [nM]: 298
- SAMPLE_SMILES: "COc1cc(CN2CCN(C)CC2)ccc1Cn1ncc2nc(N)nc(NCc3noc(C4CC4)n3)c21"
  EC50 [nM]: 47.8
- SAMPLE_SMILES: "COc1cc(CNC2CCOCC2)ccc1Cn1ncc2nc(N)nc(NCc3noc(C)n3)c21"
  EC50 [nM]: 79.1

Now look at this one.
Would you mind telling me what EC50 value was observed for `COc1cc(CNC2CCC2)ccc1Cn1ncc2nc(N)nc(NCc3cc(C)on3)c21` ?
74.6

---

- TARGET_OR_SYSTEM: human TLR7 (Homo sapiens, UniProt Q9NYK1)
- Sequence (Q9NYK1 27-1049): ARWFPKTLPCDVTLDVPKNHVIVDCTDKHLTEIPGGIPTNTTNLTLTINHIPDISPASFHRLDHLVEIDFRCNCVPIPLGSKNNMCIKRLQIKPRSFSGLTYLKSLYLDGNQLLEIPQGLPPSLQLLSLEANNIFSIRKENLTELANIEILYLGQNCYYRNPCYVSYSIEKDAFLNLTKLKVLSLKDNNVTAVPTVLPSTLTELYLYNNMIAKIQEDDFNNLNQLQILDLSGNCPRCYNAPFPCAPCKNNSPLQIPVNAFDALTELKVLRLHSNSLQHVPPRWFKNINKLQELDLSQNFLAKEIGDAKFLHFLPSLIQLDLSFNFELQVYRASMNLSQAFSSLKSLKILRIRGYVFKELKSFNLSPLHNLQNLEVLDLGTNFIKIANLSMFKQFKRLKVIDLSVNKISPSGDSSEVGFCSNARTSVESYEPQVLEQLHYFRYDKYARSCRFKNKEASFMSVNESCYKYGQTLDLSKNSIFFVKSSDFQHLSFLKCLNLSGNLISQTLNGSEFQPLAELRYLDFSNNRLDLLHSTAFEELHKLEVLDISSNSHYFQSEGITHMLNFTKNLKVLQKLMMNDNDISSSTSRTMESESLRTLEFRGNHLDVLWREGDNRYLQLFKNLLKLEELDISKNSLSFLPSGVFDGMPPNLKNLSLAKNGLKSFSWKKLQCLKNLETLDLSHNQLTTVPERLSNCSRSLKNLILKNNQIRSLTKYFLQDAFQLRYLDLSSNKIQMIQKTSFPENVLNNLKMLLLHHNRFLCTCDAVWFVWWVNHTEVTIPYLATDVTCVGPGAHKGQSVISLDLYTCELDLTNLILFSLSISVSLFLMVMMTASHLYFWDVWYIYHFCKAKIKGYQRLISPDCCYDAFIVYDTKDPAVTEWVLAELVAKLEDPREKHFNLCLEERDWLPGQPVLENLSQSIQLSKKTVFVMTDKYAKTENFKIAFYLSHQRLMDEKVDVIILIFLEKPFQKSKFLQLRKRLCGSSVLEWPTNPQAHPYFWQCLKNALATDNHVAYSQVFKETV
- EXPERIMENTAL_DETAILS: Human TLR7 agonist (reporter) activity assay, HEK-Blue TLR7 cells, SEAP reporter
- EXPERIMENTAL_CONDITIONS: 18 h treatment, average where assay was performed multiple times, read-out: hTLR7 Agonism EC50
pEC50: −log10 of the molar value.
pEC50 below 7 gives no; pEC50 at or above it gives yes.

Before answering, review these 4 worked examples.
- COMPOUND: "COc1cc(CNC2CCOCC2)ccc1Cn1ncc2nc(N)nc(NCC[C@H](O)C3CC3)c21 [Compound 109A]"
  CATEGORY: "no"
- COMPOUND: "COc1cc(CN2CC(OC)C2)ccc1Cn1ncc2nc(N)nc(NCc3noc(C)n3)c21 [Compound 118]"
  CATEGORY: "yes"
- COMPOUND: "COc1cc(CNC2CCOCC2)ccc1Cn1nc(C)c2nc(N)nc(NCc3noc(C)n3)c21 [Compound 133]"
  CATEGORY: "no"
- COMPOUND: "COc1cc(CN2CCN(S(C)(=O)=O)CC2)ccc1Cn1ncc2nc(N)nc(NCc3cc(C)on3)c21 [Compound 110]"
  CATEGORY: "no"

Decide: is the reported value of pEC50 for COc1cc(CNC2CCOCC2)ccc1Cn1ncc2nc(N)nc(NCc3cc(C)on3)c21 [Compound 103] equal to or greater than 7?
yes

Is the recorded value of pEC50 equal to or greater than 7 for this compound? COc1cc(CN2CCN(CCO)CC2)cnc1Cn1ncc2nc(N)nc(NCc3noc(C)n3)c21 [Compound 131]
no

Could you verify whether the entry COc1cc(CN2CCN(CCO)CC2)ccc1Cn1ncc2nc(N)nc(NCc3cc(C)on3)c21 [Compound 105] shows pEC50 of no less than 7?
yes

Record COc1cc(CN2CCS(=O)(=O)CC2)ccc1Cn1ncc2nc(N)nc(NCc3noc(C)n3)c21 [Compound 121] ; criterion: pEC50 no lower than 7. Met?
no

Determine whether this compound has pEC50 no lower than 7: COc1cc(CNC2CCOCC2)ccc1Cn1ncc2nc(N)nc(NCC[C@@H](O)C3CC3)c21 [Compound 109b]
no

Would you say COc1cc(CNC2CCC2)ccc1Cn1ncc2nc(N)nc(NCc3noc(C)n3)c21 [Compound 107] shows pEC50 at minimum 7?
yes

Has COc1cc(CNC2CN(S(C)(=O)=O)C2)ccc1Cn1ncc2nc(N)nc(NCc3noc(C)n3)c21 [Compound 122] a recorded pEC50 greater than or equal to 7?
no

Hi, just wondering whether COc1cc(CN2CCN(C)CC2)ccc1Cn1ncc2nc(N)nc(NCc3cc(C)on3)c21 [Compound 104] shows pEC50 of 7 or higher.
yes
